Just for reference, paper PMC12040169 is where these values come from.

# assay procedure: in vitro
# cond: human, hela cells, % viability
assay readout: viability at 28.5 h, 10 µM (%)
Answer with a number only, understood to be in %.

viability at 28.5 h, 10 µM reading for C[C@@H](c1ccccc1)n1c(=O)[nH]c2ncc(-c3cccc(/C=C/C(=O)O)c3)nc21 [CBK065040] : 106

viability at 28.5 h, 10 µM reading for COC(=O)c1c(NC(=O)COc2ccccc2C(C)C)sc2c1CCCC2 [CBK266722] : 93.5

viability at 28.5 h, 10 µM reading for O=[N+]([O-])c1ccc(CSc2nnc(-c3cccnc3)n2Cc2ccco2)cc1 [CBK264580] : 106

viability at 28.5 h, 10 µM reading for FC(F)(F)c1ccc(-c2nnc(C3CC3)o2)cc1 [CBK021992] : 86.7

---

# assay procedure: in vitro
# cond: human, hela cells, % viability
assay readout: viability at 28.5 h, 10 µM
Answer shape: numeric part, then the unit.

viability at 28.5 h, 10 µM reading for COc1ccc(/C(N)=N/OC(=O)Cc2ccc(Cl)cc2)cc1OC : 93.2%

viability at 28.5 h, 10 µM reading for NC(=O)CN1CC2(CCN(CC(=O)Nc3ccc(F)c(Cl)c3)CC2)c2ccccc21 : 99.2%

viability at 28.5 h, 10 µM reading for COc1ccc(OCCNC(=O)c2ccccc2-n2cccc2)cc1 : 95.6%

---

Provide the reported viability at 28.5 h, 10 µM of each item.
# assay procedure: in vitro
# cond: human, hela cells, % viability
Answer with a number only, understood to be in %.

viability at 28.5 h, 10 µM reading for Cc1ccccc1-n1ccn(S(=O)(=O)C(C)C)c1=O : 89.7

viability at 28.5 h, 10 µM reading for COc1cccc(/C=C2/NC(=O)N(Cc3ccc(F)cc3)C2=O)c1OCc1cccc(C(=O)O)c1 : 89.1

viability at 28.5 h, 10 µM reading for COc1ccc(Nc2nnc(-c3ccc(C(=O)NCCO)cc3)c3ccccc23)cc1 : 90.5

viability at 28.5 h, 10 µM reading for O=C(Nc1cccc(C(=O)O)c1)Nc1ccc(Cl)c(Cl)c1 [CBK155455G] : 88.7

viability at 28.5 h, 10 µM reading for FC(F)(F)c1ccc(CN2CCC(Oc3nccnc3OCc3cccnc3)CC2)cc1 [CBK083160T] : 91.6

---

Provide the reported viability at 28.5 h, 0.0123333 µM of each item.
# assay procedure: in vitro
# Parameters: Viability of infected HeLa host cells, resazurin conversion, bulk resorufin fluorescence relative to DMSO
# cond: human, hela cells; bulk resorufin, mean of 3

viability at 28.5 h, 0.0123333 µM reading for Oc1c(CN2CCN(c3ccc(F)cc3)CC2)cc(Br)c2cccnc12 [c43e] : 88.5%

viability at 28.5 h, 0.0123333 µM reading for CCC(c1ccc(F)cc1)N(C)C(=O)Cn1cc(C(=O)NC2CCCCC2)ccc1=O (stereo not drawn) [c44e] : 89.2%

viability at 28.5 h, 0.0123333 µM reading for O=C(N/N=C/c1ccc(Sc2cccc3cccnc23)o1)c1cccc(F)c1 [c10e] : 91.6%

viability at 28.5 h, 0.0123333 µM reading for FC(F)(F)CCN1CCC2(CC1)NCCc1c2[nH]c2ccc(Cl)cc12 [c34e] : 90.3%

viability at 28.5 h, 0.0123333 µM reading for CCCCc1ccc(NC(=N)Nc2nc(C)cc(C)n2)cc1 [c33e] : 91.5%

viability at 28.5 h, 0.0123333 µM reading for O=C(Nc1ccc(F)c(F)c1)NC1CCC2CN(CCOc3ccccc3)CC2C1 (stereo not drawn) : 91.5%

viability at 28.5 h, 0.0123333 µM reading for O=C1Oc2nc3ccccc3cc2CN1C1CC1 : 87.6%

viability at 28.5 h, 0.0123333 µM reading for CCCN(CCC)CCc1cccc2c1CCN2C(=O)c1cc2ccccc2s1 [c15e] : 88.8%

viability at 28.5 h, 0.0123333 µM reading for Cn1cc(C(c2ccc(OCC(=O)O)cc2)c2cn(C)c3ccccc23)c2ccccc21 [c48e] : 88.7%

---

# assay procedure: in vitro
# cond: human, hela cells, % viability
assay readout: viability at 28.5 h, 10 µM (%)
Answer with a number only, understood to be in %.

viability at 28.5 h, 10 µM reading for O=C(c1cn(-c2cc(Nc3ccccc3)ncn2)cn1)N1CCOCC1 : 103

viability at 28.5 h, 10 µM reading for CCCc1cn(C2CCN(c3cc(-n4cc(C)cn4)ncn3)CC2)nn1 : 104

viability at 28.5 h, 10 µM reading for O=C(N/N=C/c1c(O)ccc2ccccc12)c1cnccn1 : 105

viability at 28.5 h, 10 µM reading for O=C(O)Cc1nc(-c2ccccc2)c(-c2ccccc2)s1 : 99.4

viability at 28.5 h, 10 µM reading for CC(=O)N(C)c1ncc(Br)cc1C(=O)NCc1ccc2c(c1)CCO2 : 93.5

viability at 28.5 h, 10 µM reading for CCn1c(=O)n(CC(=O)NCc2ccccc2F)c2cccnc21 : 86.8

viability at 28.5 h, 10 µM reading for Nc1ncc(-c2ccc(Cl)cc2)nc1-c1ccc(CCC(=O)O)cc1 : 92.9

viability at 28.5 h, 10 µM reading for Cc1cc(C)nc(N2CCC(CC(=O)NCCCc3ccc(F)cc3)CC2)n1 : 83.1

viability at 28.5 h, 10 µM reading for O=c1c2cc(Br)cc(F)c2ncn1CCC1CCCO1 (stereo not shown) : 95.9

viability at 28.5 h, 10 µM reading for CN(C)C(=O)c1ccc(-c2ccc(OC3CCN(C(=O)CCc4cccnc4)CC3)nc2)cc1 : 93.3

viability at 28.5 h, 10 µM reading for Cc1nc(-c2ccccc2)sc1CNC(=O)/C=C/c1c[nH]cn1 : 83.3

viability at 28.5 h, 10 µM reading for CCCc1nn(CC(=O)NC2CCC2)c(=O)c2cc3ccsc3n12 : 89.1

viability at 28.5 h, 10 µM reading for O=C(Cn1c(=O)n(Cc2cccs2)c2ncccc21)NCC1CC1 : 89.3

viability at 28.5 h, 10 µM reading for O=C(CCN1CCCCC1)NCC1OCCc2ccccc21 (stereo not shown) : 97

viability at 28.5 h, 10 µM reading for O=S(=O)(CCN1CCC(Cc2ccccc2)CC1)c1ccccc1 : 94.9

viability at 28.5 h, 10 µM reading for CCNC(=O)Nc1ccc([C@@H](O)[C@H]2COCC(=O)N2CC)cc1 : 93.5

---

Provide the reported viability at 28.5 h, 10 µM of each item.
# assay procedure: in vitro
# cond: human, hela cells, % viability
Answer with a number only, understood to be in %.

viability at 28.5 h, 10 µM reading for O=C(Nc1cccc(-c2csnn2)c1)c1ccco1 [CBK270255] : 85.2

viability at 28.5 h, 10 µM reading for Nc1ncn(Cc2ccccc2)c2nc(SCc3ccccc3)nc1-2 [CBK025744] : 106

viability at 28.5 h, 10 µM reading for O=C(O)CCC(=O)NC1CCN(Cc2ccccc2)CC1 [CBK287103] : 86.5

viability at 28.5 h, 10 µM reading for Nc1ncc(-c2cncnc2)nc1NCc1ccccc1 [CBK063584] : 103

viability at 28.5 h, 10 µM reading for CCC1CCCCN1Cc1c(O)ccc2c(=O)c(Oc3ccc(OC)cc3)c(C(F)(F)F)oc12 (stereo not drawn) [CBK263727] : 98.8

viability at 28.5 h, 10 µM reading for COc1ccc(Cc2nc(CC3CCCOC3)n(CC(F)(F)F)n2)cc1 (stereo not drawn) [CBK307140] : 112

viability at 28.5 h, 10 µM reading for O=C(NCc1cccc(C(F)(F)F)c1)N1CCCC(CO)C1 (stereo not drawn) [CBK156033] : 89.5

viability at 28.5 h, 10 µM reading for CN1CCN(C(=O)c2ccc(-c3cnc4[nH]c(=O)n(CCN5CCOCC5)c4n3)cc2)CC1 [CBK064800] : 114

viability at 28.5 h, 10 µM reading for Cc1ccc(-c2ccnc3[nH]c(=O)[nH]c(=O)c23)cc1 [CBK287978] : 89.7

viability at 28.5 h, 10 µM reading for CCNC(=O)C1(Cc2ccccc2-c2cccnc2)CCOCC1 [CBK285218] : 103

viability at 28.5 h, 10 µM reading for O=c1cc(CN2CCCc3ccccc32)[nH]c(=O)[nH]1 [CBK138331] : 95.1

viability at 28.5 h, 10 µM reading for COc1cc(OC)cc(C(=O)N(CCC#N)Cc2ccco2)c1 [CBK305133] : 96.3

viability at 28.5 h, 10 µM reading for CC(NC(=O)Cn1cnc2ccccc21)c1ccccn1 (stereo not drawn) [CBK281884] : 96.7

viability at 28.5 h, 10 µM reading for COc1cccc2ncn(CCNS(C)(=O)=O)c(=O)c12 [CBK306583] : 81

viability at 28.5 h, 10 µM reading for O=C(NCc1ccco1)c1cc(-c2ccc(Cl)cc2)cnc1N1CCOCC1 [CBK076352] : 87

viability at 28.5 h, 10 µM reading for O=C(c1cnc2cc(C(F)(F)F)ccc2c1O)N1CCN(c2ccccn2)CC1 [CBK107431] : 94.8

viability at 28.5 h, 10 µM reading for CC(=O)N1CCCN(Cc2c(C(C)C)[nH]c3ncccc23)CC1 [CBK285333] : 103

viability at 28.5 h, 10 µM reading for O=c1cc(CN2CCN(c3ccccc3)CC2)occ1O [CBK288392] : 89

viability at 28.5 h, 10 µM reading for Cc1ccccc1N1CCC(CNC(=O)CCc2ccnn2C)C1 (stereo not drawn) [CBK306543] : 89

viability at 28.5 h, 10 µM reading for Cn1nnc2cc(NC(=O)N3CC4(C)CC3CC(C)(C)C4)ccc21 (stereo not drawn) [CBK304389] : 94.6

viability at 28.5 h, 10 µM reading for CC(C)Nc1cc(Sc2ccc(Cl)c(Cl)c2)ncn1 [CBK089500] : 90.8

viability at 28.5 h, 10 µM reading for O=C(CCN1C(=O)COc2ccccc21)NCCCN1CCN(c2ccccc2F)CC1 [CBK294469] : 102

viability at 28.5 h, 10 µM reading for Cc1ccc(C(=O)NC(=S)Nc2ccc(-c3ccc(CO)o3)cc2)cc1[N+](=O)[O-] [CBK269127] : 110

viability at 28.5 h, 10 µM reading for Cc1ccc(S(=O)(=O)n2nncc2C)cc1 [CBK001921] : 111

viability at 28.5 h, 10 µM reading for CCc1nc2c(OCC(=O)N3CCOCC3)cccn2c1N(C)C(=O)c1ccco1 [CBK147436] : 92

viability at 28.5 h, 10 µM reading for Cc1nc2cc(OCc3ccc(-c4nccnc4-c4nnn[nH]4)cc3)ccc2s1 [CBK050820] : 108

viability at 28.5 h, 10 µM reading for O=C(CCc1ccc(S(=O)(=O)NC2CCCCC2)cc1)Nc1ccc2c(c1)OCCO2 [CBK266845] : 95.2
